EXPERIMENTAL SYSTEM: mouse Cholecystokinin, CCK1 Receptor (CCKA), Cckar (gene 12425) (UniProt O08786)
Sequence (O08786 whole entry, looked up): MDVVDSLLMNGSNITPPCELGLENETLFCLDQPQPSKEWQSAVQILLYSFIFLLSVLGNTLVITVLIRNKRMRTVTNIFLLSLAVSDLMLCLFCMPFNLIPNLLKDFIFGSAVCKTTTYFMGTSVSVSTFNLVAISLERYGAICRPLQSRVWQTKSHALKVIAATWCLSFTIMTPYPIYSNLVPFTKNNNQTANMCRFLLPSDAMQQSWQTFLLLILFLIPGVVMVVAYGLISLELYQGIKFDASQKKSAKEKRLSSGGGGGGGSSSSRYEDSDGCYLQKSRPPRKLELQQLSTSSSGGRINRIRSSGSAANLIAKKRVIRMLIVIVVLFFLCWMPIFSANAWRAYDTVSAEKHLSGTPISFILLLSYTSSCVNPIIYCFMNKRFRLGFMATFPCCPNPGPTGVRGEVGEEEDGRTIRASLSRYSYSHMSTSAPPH
ASSAY METHOD TEXT: NVS_GPCR_mCCKAPeripheral: NovaScreen (NVS) G Protein-Coupled Receptor Assay for mouse Cholecystokinin, CCK1 Receptor (CCKA) (AID 2283285)
Records with an inconclusive call do not appear. Active and inactive are the calls of the source. The calls were made as follows: active = hit-call score of the fitted dose curve at least 0.9, where 1 is the maximum; inconclusive = response in the unintended direction; inactive = score below 0.9.
# maps each entry to its AC50

Consider the worked cases shown below.
{"columns": ["SMILES STRUCTURE", "AC50"],
 "data": [
  ["CN(C)C(=O)C1(N2CCCCC2)CCN(CC[C@@]2(c3ccc(Cl)c(Cl)c3)CN(C(=O)c3ccccc3)CCO2)CC1", "3.99 µM (active)"],
  ["CCOC(=O)O[C@H](C)OC(=O)c1ccc2c(c1)cc(C(=O)NC1CCN(C(C)C)CC1)n2Cc1cc(-c2ccc(Cl)s2)on1", "22.9 µM (active)"],
  ["NCc1cccc(C2CCN(C(=O)c3ccc(C#Cc4ccccc4F)o3)CC2)c1", "13.6 µM (active)"],
  ["CCCCCCCCCCCC[N+](C)(C)C", "20.6 µM (active)"],
  ["CC/C(=C(/CC)c1ccc(O)cc1)c1ccc(O)cc1", "12.5 µM (active)"]
]}

Next, consider the following molecule.
The molecule listed as `Cc1cc(F)ccc1-c1cc(N2CC[C@@H](O)[C@H]2CO)ncc1N(C)C(=O)C(C)(C)c1cc(C(F)(F)F)cc(C(F)(F)F)c1` shows AC50 equal to 4.08 µM (active)

* * *

ASSAY METHOD TEXT: APR_HepG2_P-H2AX_24hr: Apredica 24-hour HepG2 Assay for H2AX Phosphorylation (AID 2282920)
TEST SETTINGS: high-content imaging, actives raise or lower the signal
Activity calls are given as the source filed them. The calls were made as follows: active = hit-call score of the fitted dose curve at least 0.9, where 1 is the maximum; inactive = score below 0.9.
Outcome field: choose from active, inactive

{"columns": ["COMPOUND", "ASSIGNED CATEGORY"],
 "data": [
  ["CCCC(=O)OCCC(C)C", "inactive"],
  ["CCCCOC(=O)CC(CC(=O)OCCCC)(OC(C)=O)C(=O)OCCCC", "inactive"],
  ["O=C1c2ccccc2C(=O)N1CCc1noc(-c2ccc(CN3CCCCCC3)s2)n1", "inactive"],
  ["Clc1cc(Cl)c2c(c1)N=C1CCCCCN1C2", "inactive"],
  ["CC1=CC(=O)/C(=C(/C)O)C(=O)O1", "inactive"]
]}

Inquiry: Per the records of this test, what outcome belongs to `CC(C)(c1cc(Br)c(O)c(Br)c1)c1cc(Br)c(O)c(Br)c1` ?
Reply text: active

Inquiry: Check the results log: what was the call for `CCCCCc1ccc(N)cc1` ?
Reply text: inactive

Inquiry: Entry `CN(C)c1ccc(C(=C2C=CC(=[N+](C)C)C=C2)c2ccc(N(C)C)cc2)cc1` : call = ?
Reply text: active

* * *

Read-out: X-box binding protein 1 (XBP1), XBP1 (gene 7494)
ASSAY METHOD TEXT: LTEA_HepaRG_XBP1: Life Technologies and Expression Analysis (LTEA) Assay for X-box binding protein 1 (XBP1) using HepaRG (AID 2283540)
TEST SETTINGS: mRNA level, 48 h; actives raise or lower the signal
Active and inactive are the calls of the source. How the source made its calls: active means hit-call score of the fitted dose curve at least 0.9, where 1 is the maximum; inactive means score below 0.9.
MEASURED PARAMETER: AC50

{"columns": ["COMPOUND", "REPORTED RESULT"],
 "data": [
  ["O=C(O)Cn1c(=O)n(Cc2ccc(Br)cc2F)c(=O)c2ccc(Cl)cc21", "inactive"],
  ["CC[C@H](NC(=O)c1cc(F)ccc1NS(=O)(=O)c1cccc2cccnc12)c1ccccc1", "inactive"],
  ["Cc1ncc(CO)c(CO)c1O", "inactive"],
  ["COCC(C)OCC(C)OCC(C)O (stereo unspecified)", "inactive"],
  ["CCCCCCCCOC(=O)c1cc(O)c(O)c(O)c1", "inactive"],
  ["OCCO", "inactive"],
  ["CCN(Cc1cccnc1)C(=O)c1cccc(Cl)c1[C@]1(C)C(=O)N(Cc2ccc(OC)cc2OC)c2ccc(Cl)cc21", "24.6 µM (active)"],
  ["CCN(CC)C(=O)c1cc(S(=O)(=O)Cc2ccccc2)c(N2CCC(c3ccccc3)CC2)cc1N(CC)CCN(C)C", "28.8 µM (active)"],
  ["O=CCCCC=O", "inactive"],
  ["CC[C@@H]1C[C@H](N(Cc2cc(C(F)(F)F)cc(C(F)(F)F)c2)C(C)=O)c2cc(C(F)(F)F)ccc2N1C(=O)OC(C)C", "inactive"]
]}

Just so you know, measured AC50 for `CCCCCCCCN(C)CCCCCCCC` came out at inactive

* * *

Each record here notes measured AC50.
System: SRD5A2 (gene 6716)
ASSAY METHOD TEXT: CCTE_Deisenroth_5AR_NBTE_ratio: CCTE's 5alpha-reductase NanoBRET Target Engagement Assay - Ratio, Deisenroth Lab (AID 2284322)
TEST SETTINGS: actives raise or lower the signal
Calls of active or inactive are those of the source. Rule for the calls: active = hit-call score of the fitted dose curve at least 0.9, where 1 is the maximum; inactive = score below 0.9.

Consider the worked cases shown below.
{"columns": ["SMILES STRUCTURE", "REPORTED RESULT"],
 "data": [
  ["O=c1[nH]sc2ccccc12", "75 µM (active)"],
  ["CN(C)c1ccc(C(=C2C=CC(=[N+](C)C)C=C2)c2ccc(N(C)C)cc2)cc1", "0.593 µM (active)"],
  ["CO[C@H]1/C=C/O[C@@]2(C)Oc3c(C)c(O)c4c(O)c(c(/C=N/N5CCN(C)CC5)c(O)c4c3C2=O)NC(=O)/C(C)=C\\C=C\\[C@H](C)[C@H](O)[C@@H](C)[C@@H](O)[C@@H](C)[C@H](OC(C)=O)[C@@H]1C", "54.3 µM (active)"]
]}

Entry `O=C(O)Cc1cc(I)c(Oc2ccc(O)c(I)c2)c(I)c1` — recorded AC50 = 77.3 µM (active)

# compound `CCN(Cc1cccc(S(=O)(=O)O)c1)c1ccc(C(=C2C=CC(=[N+](CC)Cc3cccc(S(=O)(=O)O)c3)C=C2)c2ccccc2S(=O)(=O)[O-])cc1` ; its AC50 = 2.9 µM (active)

`CCCCCCCCOC(=O)c1cc(O)c(O)c(O)c1` has a reported AC50 of 1.59 µM (active)

* * *

Read-out: CYP2E1 (gene 1571)
ASSAY METHOD TEXT: LTEA_HepaRG_CYP2E1: Life Technologies and Expression Analysis (LTEA) Assay for CYP2E1 using HepaRG (AID 2283485)
TEST SETTINGS: mRNA level, 48 h; actives raise or lower the signal
The source made the active and inactive calls. Rule for the calls: active = hit-call score of the fitted dose curve at least 0.9, where 1 is the maximum; inactive = score below 0.9.
MEASURED PARAMETER: AC50

// known answers, use as guide
{"columns": ["COMPOUND", "AC50"],
 "data": [
  ["CCCCCCCCCCCCO", "inactive"],
  ["CC[C@H](NC(=O)c1cc(F)ccc1NS(=O)(=O)c1cccc2cccnc12)c1ccccc1", "22.3 µM (active)"],
  ["NC(=O)c1nc(-c2cccc(-c3cc(F)ccc3OCC(F)(F)C(F)(F)F)c2)n[nH]1", "16.9 µM (active)"],
  ["Cc1ccc(C(C)C)cc1", "inactive"],
  ["CCCOC(=O)c1cc(O)c(O)c(O)c1", "21.6 µM (active)"]
]}

Sure, the documented AC50 for `Cc1oc2c(NC(=O)c3c(Cl)cccc3Cl)cccc2c1C(C)(C)O` is 39.7 µM (active)

* * *

EXPERIMENTAL SYSTEM: Nuclear receptor subfamily 1 group I member 3 (Homo sapiens) (UniProt Q14994)
Sequence (Q14994 whole entry, looked up): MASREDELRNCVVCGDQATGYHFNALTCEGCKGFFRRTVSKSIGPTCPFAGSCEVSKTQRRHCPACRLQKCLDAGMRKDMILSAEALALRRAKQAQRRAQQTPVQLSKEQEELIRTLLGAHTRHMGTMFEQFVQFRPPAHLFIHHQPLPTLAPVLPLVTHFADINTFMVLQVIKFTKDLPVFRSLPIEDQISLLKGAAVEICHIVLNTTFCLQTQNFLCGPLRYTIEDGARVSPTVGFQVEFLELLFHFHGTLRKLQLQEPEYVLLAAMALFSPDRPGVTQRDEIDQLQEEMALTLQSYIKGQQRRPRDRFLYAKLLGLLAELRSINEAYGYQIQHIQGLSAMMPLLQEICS
ASSAY METHOD TEXT: ATG_CAR_TRANS: Attagene TRANS-FACTORIAL HepG2 Assay for human Constitutive Androstane Receptor (CAR) (AID 2282969);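 also: activators raise reporter mRNA above DMSO so AC50 marks induction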
TEST SETTINGS: HepG2 Attagene TRANS-FACTORIAL CAR reporter
Experimental: ATG_TRANS is a cell-based, multiplexed-readout assay that uses HepG2, a human liver cell line, with measurements taken at 24 hours after chemical dosing in a 24-well plate.ATG_CAR_TRANS is one of 30 assay component(s) measured or calculated from the ATG_TRANS assay. […] This assay endpoint, ATG_CAR_TRANS, was analyzed in the positive analysis fitting direction relative to DMSO as the negative control and baseline of activity. […]
Results filed as inconclusive are left out. Activity calls are given as the source filed them. Rule for the calls: active = hit-call score of the fitted dose curve at least 0.9, where 1 is the maximum; inconclusive = response in the unintended direction; inactive = score below 0.9.
Assign a class; possible classes are active, inactive

{"columns": ["SMILES STRUCTURE", "EXPERIMENTAL SYSTEM", "ASSIGNED CATEGORY"],
 "data": [
  ["Oc1ccccc1", "Nuclear receptor subfamily 1 group I member 3 (Homo sapiens) (UniProt Q14994)", "inactive"],
  ["CC(C)(O)c1ccc(CNC(=O)c2cccnc2Oc2ccc3nonc3c2)cc1", "Nuclear receptor subfamily 1 group I member 3 (Homo sapiens) (UniProt Q14994)", "inactive"]
]}

Inquiry: What is the recorded call for this compound in the test? `CCCCCCCCOc1ccc(C(=O)c2ccccc2)c(O)c1`
Reply text: inactive

Inquiry: // param item: `Cc1c2ccccc2c(C)c2c1ccc1ccccc12` ; yields the recorded call
Reply text: active

Inquiry: Short answer needed: outcome of this test for `CCCCCc1ccc(N)cc1` ?
Reply text: inactive

Inquiry: # fetch the recorded call for `O=C(O)c1ccccc1C(=O)OCc1ccccc1` here
Reply text: inactive

Inquiry: Would you mind telling me which call this test gave `CN(C[C@@H](CC[N+]12CCC(C3CCCCC3)(CC1)CC2)c1ccc(Cl)c(Cl)c1)C(=O)c1cc(C(F)(F)F)cc(C(F)(F)F)c1` ?
Reply text: inactive

Inquiry: What did the test return for `CC(C)(c1cc(Br)c(O)c(Br)c1)c1cc(Br)c(O)c(Br)c1` ?
Reply text: inactive

Inquiry: # fetch the recorded call for `CCCCCCCCCCCCO` here
Reply text: inactive

Inquiry: Dear colleague, could you share the recorded outcome for `O=c1[nH]sc2ccccc12` when you have a moment?
Reply text: inactive

Inquiry: Field: outcome | Entry: `CCN(CC)C(=O)c1cc(S(=O)(=O)Cc2ccccc2)c(N2CCC(c3ccccc3)CC2)cc1N(CC)CCN(C)C`
Reply text: inactive

Inquiry: Can you look up the reported call for `Clc1cc(Cl)c2c(c1)N=C1CCCCCN1C2` for me?
Reply text: inactive

Inquiry: For this compound, state the assay outcome: `CCCCCCCCOC(=O)c1cc(O)c(O)c(O)c1`
Reply text: inactive

Inquiry: What outcome does the record of this test show for `O=C(OCCCCCCOC(=O)c1ccccc1)c1ccccc1` ?
Reply text: inactive

Inquiry: For this compound, state the assay outcome: `c1ccc2n[nH]nc2c1`
Reply text: inactive

Data origin: PubChem BioAssay (EPA / NIEHS)
